# FcγIII (OD read at 405 nm) per record follows
# Test system: FcγIII
# assay notes: Reverse ELISA: inhibition of PAP immune complex binding to FcγIII coated plates
# assay setup: PAP pre-incubated with peptide one hour; lower OD = more inhibition; positive control 1.588
No end group written: not given here.
measured quantity: FcγIII (OD read at 405 nm)

substance | measured quantity | value observed
APPCARHLGELVWCT [SEQ ID NO:14] | FcγIII (OD read at 405 nm) | 0.709
APPCAWHLGELVWCT [SEQ ID NO:13] | FcγIII (OD read at 405 nm) | 0.530
Ala-Pro-Pro-Asp-Cys-Ala-Trp-His-Leu-Gly-Glu-Leu-Val-Trp-Cys-Thr (APPDCAWHLGELVWCT) [SEQ ID NO:16] | FcγIII (OD read at 405 nm) | 0.670
Asp-Cys-Ala-Trp-His-Leu-Gly-Glu-Leu-Val-Trp-Cys-Thr [SEQ ID NO:2] | FcγIII (OD read at 405 nm) | 0.741
Asp-Cys-Ala-Phe-His-Leu-Gly-Glu-Leu-Val-Trp-Cys-Thr (DCAFHLGELVWCT) [SEQ ID NO:3] | FcγIII (OD read at 405 nm) | 0.810
APPCAFHLGELVWCT (not fully specified; cysteine pairing not given here) [SEQ ID NO:15] | FcγIII (OD read at 405 nm) | 0.880
